- PROTOCOL_DESCRIPTION: Drug level in Caco-2 cells assessed as total recovery rate at 50 uM after 90 mins
- Assay type: ADME, cell-based
- TEST_CONDITIONS: human, read-out: Drug uptake
recovery at 1.5 h, 50 µM: recorded values
READOUT_KIND: recovery at 1.5 h, 50 µM (%)

{"QUERY_SMILES": "Cc1cc(=O)c2c(O)cc(O[C@@H]3O[C@H](COC(=O)C4=CC[C@H](C(C)(C)O)CC4)[C@@H](O)[C@H](O)[C@H]3O)cc2o1", "READOUT_KIND": "recovery at 1.5 h, 50 µM", "OBSERVED_MEASUREMENT": 52.8}
{"QUERY_SMILES": "CC(C)C[C@@H](c1c(O)c(C=O)c(O)c(C=O)c1O)[C@@]1(C)CC[C@@H]2[C@@H]1[C@H]1[C@@H](CC[C@@]2(C)O)C1(C)C", "READOUT_KIND": "recovery at 1.5 h, 50 µM", "OBSERVED_MEASUREMENT": 60.8}
{"QUERY_SMILES": "CC(C)C[C@H](c1c(O)c(C=O)c(O)c(C=O)c1O)[C@@]1(C)CC[C@@H]2[C@@H]1[C@H]1[C@@H](CC[C@@]2(C)O)C1(C)C", "READOUT_KIND": "recovery at 1.5 h, 50 µM", "OBSERVED_MEASUREMENT": 64.7}

Where do these numbers come from? They come from ChEMBL document CHEMBL1138427.
